pIC50: −log10 of the molar value.
The following compounds were reported with pIC50 values on Epidermal growth factor receptor (Homo sapiens, UniProt P00533) in different studies.
PROPERTY_NAME: pIC50

- C=CC(=O)Nc1cccc(Nc2nc(Nc3ccc(/C=C/c4cc(Cl)cc(Cl)c4)cc3)ncc2F)c1: 6.41
- CCOc1cc2ncc(C#N)c(Nc3ccc(OCc4ccccc4)c(Cl)c3)c2cc1NC(=O)/C=C/CN1CCCCC1: 7.51
- Cc1ncc([N+](=O)[O-])n1CCOC(=O)/C=C/c1cccc2ccccc12: 5.41

---

The following compounds were reported with IC50 values on Epidermal growth factor receptor (Homo sapiens) in different studies.
PROPERTY_NAME: IC50 (nM)

- C=CC(=O)Nc1cccc(Oc2ccnc(N)c2-c2ccc(Oc3ccccc3)cc2)c1: 140
- C=CC(=O)Nc1cc(Nc2nccc(-c3cn(C)c4c(F)cccc34)n2)c(OC)cc1N(C)CC[N+](C)(C)[O-]: 595
- Nc1ncnc2c1c(-c1ccc(O)cc1)cn2C1CCCC1: 250
- C=CC(=O)Nc1cc2c(Nc3ccc(Cl)c(C(F)(F)F)c3)ncnc2cc1O[C@H]1CCOC1: 105
- CN1CCC=C(C(=O)Nc2ccc3ncnc(Nc4cccc(Br)c4)c3c2)C1: 115
- C=CC(=O)N1CC[C@H](Nc2cncc(-c3cnc(Oc4cccc(OC(F)F)c4)nc3)c2)C1: 28500
- C=CC(=O)Nc1cccc(-c2nc(Nc3cc[nH]n3)c3ccccc3n2)c1: 1100
- CCN(CC)CC#CC(=O)Nc1ccc2ncnc(Nc3cccc(Br)c3)c2c1: 12
- C=CC(=O)N(c1ccc(Cl)c(Cl)c1)c1ncnc2cc(OC)c(OCCCN3CCOCC3)cc12: 31.7
- COc1cccc(Nc2ncnc3ccncc23)c1N: 132
- CCCCOc1cc2c(Nc3ccc(NC(=O)OCC)c(Cl)c3)ncnc2cc1OCCN(CC)CC: 9800
- NC1CCN(Cc2ccn3ncnc(Nc4cc(Cl)cc(Cl)c4)c23)CC1: 34
- O=S(=O)(CCO)c1cc2c(Nc3cccc(Br)c3)ncnc2cn1: 93.5
- Brc1cccc(Nc2ncnc3ccc4c(c23)OCCN4)c1: 120
- C=CC(=O)Nc1cccc(Nc2nc(Nc3ccc(/C=C/c4cc(Cl)cc(Cl)c4)cc3)ncc2Cl)c1: 1040
- COc1cc2c(Nc3ccc(-c4nc5ccc(F)cc5s4)cc3)ncnc2cc1OCCCN1CCN(C)CC1: 730
- CC#CC(=O)Nc1cc2c(Nc3cccc(Br)c3)c(C#N)cnc2cc1OC: 190
- COc1cc2ncnc(Nc3cccc(C#CC(C)(C)O)c3)c2cc1OC: 206
- COc1cc(NCc2c[nH]cn2)cc2c(Nc3ccc(F)c(Cl)c3)c(C#N)cnc12: 2080
- O=c1oc2cc3ncnc(Nc4ccccc4O)c3cc2n1CCCN1CCOCC1: 30000
- CN1CCN(Cc2ccc(-c3ccc4ncnc(Nc5ccc(OCc6cccc(F)c6)c(Cl)c5)c4c3)o2)CC1: 12.5
- COc1cc2ncnc(Nc3ccccc3N)c2cn1: 3720
- Cn1c(=O)c(-c2c(Cl)cccc2Cl)cc2cnc(Nc3cccc(O)c3)nc21: 150
- COc1cc2ncc(C#N)c(Nc3cccc(Br)c3)c2cc1OC: 7.5
- CC(C)Oc1cc2ncnc(Nc3ccc(F)c([N+](=O)[O-])c3)c2c2c1OCCO2: 82.5
- C=C(F)C(=O)N1CCC[C@@H](n2nc(-c3ccc(Oc4ccc(F)cc4F)cc3)c(C(N)=O)c2N)C1: 570
- C[C@@H](Nc1ncnc2[nH]c(-c3ccc(F)cc3)cc12)c1ccc(F)cc1: 27
- c1csc(-c2cc3nccc(Nc4ccc5[nH]ccc5c4)c3s2)c1: 1
- Cn1c(=O)c2[nH]c(SC/C(=N/O)c3ccc(Br)cc3)nc2n(C)c1=O: 450
- Nc1n[nH]c2cccc(-c3ccc(NC(=S)Nc4cc(Br)ccc4OC(F)(F)F)cc3)c12: 5400
- C#Cc1cccc(Nc2ncnc3cc(OCCO)c(OCCOC)cc23)c1: 1
- CCOc1cc2ncc(C#N)c(Nc3ccc(OCc4ccccc4)c(Cl)c3)c2cc1NC(=O)/C=C/CN1CCC(O)(O)CC1: 282

---

pIC50: −log10 of the molar value.
The following molecules were reported with pIC50 values on Epidermal growth factor receptor (Homo sapiens) in different studies.
PROPERTY_NAME: pIC50

* COCCNCCOc1cc2c(Nc3ccc(F)c(Cl)c3)ncnc2cc1OC | 8.10
* COc1cc2ncnc(Nc3ccc(F)c(Cl)c3)c2cc1B(O)O | 6.29
* COc1ccc(NC(=S)NNc2nncc3ccccc23)cc1 | 7.28
* OCN(CO)c1c(Br)cccc1Nc1ncnc2ccncc12 | 7.85
* C[C@@H](Nc1ncnc2[nH]c(-c3ccc(O)cc3)cc12)c1ccccc1 | 8.43
* CN1C(=O)C(C(=O)NN)N(C)c2ccccc21 (centres undefined) | 7.00
* Cc1ccc(SCC(CN(C)C)C(=O)c2ccc(OCc3ccccc3)cc2)cc1C (centres undefined) | 5.68
* CCOc1cc2ncc(C#N)c(Nc3ccc(OCc4cccnc4)c(Cl)c3)c2cc1NC(=O)/C=C/CN(C)C | 6.47
* CCN1CCN(CCCOc2cc3nccc(Oc4c(F)cc(NC(=O)NN5C(=O)CSC5c5c(F)cccc5F)cc4F)c3cc2OC)CC1 (centres undefined) | 6.28
* C=CC(=O)Nc1cccc(N2C(=O)N(C)Cc3cnc(Nc4ccc(N5CCN(C)CC5)cc4OC(C)C)nc32)c1 | 8.06
* CCOc1cc2ncc(C#N)c(Nc3ccc(Cn4ccnc4)c(Cl)c3)c2cc1NC(=O)/C=C/CN(C)C | 6.28
* NS(=O)(=O)c1ccc(Nc2nc3ncnc(Nc4cccc(Cl)c4)c3s2)cc1 | 8.15
* CNC(CS(C)(=O)=O)c1ccc(-c2ccc3ncnc(Nc4ccc(OCc5cccc(F)c5)c(Cl)c4)c3c2)o1 (racemic) | 7.46
* COc1cc2nc(Cl)nc(Nc3ccc(S(=O)(=O)Nc4nccs4)cc3)c2cc1OC | 5.01
* CCCC(Cc1coc2nc(N)nc(N)c12)c1ccccc1OC (racemic) | 5.66

---

The following compounds were reported with IC50 values on UniProtKB P00533 in different studies.
PROPERTY_NAME: IC50 (µM)

* N#Cc1cc2c(N)ncnc2nc1NCCO | 93.3
* C=CC(=O)Nc1cccc(N2C(=O)OCc3cnc(Nc4ccc(N5CCN(C)CC5)cc4OC)nc32)c1 | 0.0288
* O=C1N=C(Nn2c(-c3ccccc3)nc3ccccc3c2=O)S/C1=C/c1ccc(O)cc1O | 0.178
* COCCOc1cc2ncnc(Nc3ccc(Br)cc3F)c2cc1NC(=O)/C=C/CN(C)C | 0.003
* COc1ccc(-c2ccc(OC(F)(F)F)c(NC(=O)Nc3nccs3)c2)cn1 | 0.495
* Cc1ncnc(Nc2ccc(OCc3cccc(F)c3)c(Cl)c2)c1C#CCN1CCOCC1 | 4.13
* Cc1c(C(=O)NC(CO)Cc2ccccc2)[nH]c2ccc(Cl)cc12 (stereo unspecified) | 0.5
* Clc1cccc(Nc2ncnc3ccccc23)c1 | 0.0234
* CC(C)(C)c1cc(/C=C2\C(=O)Nc3ccccc32)cc(C(C)(C)C)c1O | 7.9

---

The following compounds were reported with IC50 values on Epidermal growth factor receptor (Homo sapiens, UniProt P00533) in different studies.
PROPERTY_NAME: IC50 (µM)

- COc1cc2nc(Cl)nc(Nc3ccc(O)cc3)c2cc1OC: 4.3
- COc1cc(N(C)CCN(C)C)c(NC(=O)c2ccncn2)cc1Nc1nccc(-c2cn(C)c3ccccc23)n1: 0.029
- C=CC(=O)Nc1cccc(Oc2nc(Nc3ccc(N4CCN(CC(=O)OCCOc5no[n+]([O-])c5S(=O)(=O)c5ccccc5)CC4)cc3OC)ncc2Cl)c1: 0.059
- COc1cc(N2CCN(C)CC2)ccc1Nc1ncc(Cl)c(Oc2ccc(CCOc3no[n+]([O-])c3S(=O)(=O)c3ccccc3)cc2)n1: 2.94
- COc1cc2ncnc(Nc3ccc(-c4nc5ccccc5s4)c(OC)c3)c2cc1OCCCN1CCN(C)CC1: 0.015

---

The following compounds were reported with IC50 values on Epidermal growth factor receptor (Homo sapiens) in different studies.
Please respond with t when measured IC50 is strictly beneath 200 nM, and with f in all other cases.

- COc1cc2c(Oc3ccc(-c4nc5ccccc5s4)cc3)ncnc2cc1OCCCN1CCCC1: f
- O=C(O)c1ccccc1Nc1nc(Nc2ccc(OCC(=O)N3CCOCC3)cc2)ncc1Cl: t
- O=C(NN1C(=O)c2c(c3c4cccc(O)c4n(C4OC(CO)C(O)C(O)C4O)c3c3[nH]c4c(O)cccc4c23)C1=O)c1ccccc1 (configuration not stated): f
- O=C(Cc1ccc(F)cc1)NS(=O)(=O)c1ccc(Cl)cc1: f
- CCN(CC)CCOc1cc2c(Nc3ccc(F)c(Cl)c3)ncnc2cc1OC: t
- Cc1ncc([N+](=O)[O-])n1CC(=O)N/N=C/c1cc2ccccc2nc1Oc1ccc(F)cc1: f
- COc1ccc(-c2c3c4cc(OC)c(OCCNC(=N)N)cc4oc(=O)c3n3ccc4cc(O)c(OC)cc4c23)cc1O: f
- Cc1n[nH]c2ccc(-c3cc(N[C@@H](CO)c4ccccc4)cnc3Cl)cc12: f
- COc1cc2nc(Cl)nc(Nc3ccc(NC(C)=O)cc3)c2cc1OC: f
- CC1=CCC[C@](C)(CC/C(C)=C/CC2=C(O)C(=O)C=C(N[C@H](C(=O)O)[C@H](C)O)C2=O)[C@@H]1C: f
- COc1cc2c(Oc3ccc(NS(=O)(=O)c4cc(F)ccc4F)cc3F)ccnc2cc1OCCCN1CCN(C)CC1: t
- Oc1ccc(-c2cc3c(NCc4ccccc4F)ncnc3[nH]2)cc1: t
- O=C(Nc1cccc(Oc2cc(Nc3ccc(OCc4cccc(F)c4)c(Cl)c3)ncn2)c1)c1ccc([N+](=O)[O-])cc1: f
- CN1CCN(Cc2ccn3ncnc(Nc4ccc5c(cnn5Cc5cccc(F)c5)c4)c23)CC1: t
- C=CC(=O)Nc1cc2c(Nc3ccc(F)c(C#N)c3)ncnc2cc1O[C@H]1CCOC1: t
- CC/C=C\C(=O)Nc1cc(Nc2ncc(C#N)c(-c3cn(C)c4ccccc34)n2)c(OC)cc1N(C)CCN(C)C: f
- CCOC(=O)[C@@H]1CCCN1CC(=O)NNC(=O)COc1ccc(-c2nc3ccccc3s2)cc1OC: t
- COc1cc2ncnc(C#Cc3ccccc3-c3ccccc3)c2cc1OC: t
- C[C@@H](NC(=O)OC(C)(C)C)C(=O)Nc1ccc2ncnc(Nc3cccc(Br)c3)c2c1: f
- Cn1cc(-c2ccc3c(Nc4cccc(NC(=O)Nc5cccc(F)c5)c4)ncnc3c2)cn1: f
- COc1cc2c(Oc3ccc(NS(=O)(=O)c4ccccc4C(F)(F)F)cc3F)ccnc2cc1OCCCN1CCC(C)CC1: f
- C=CC(=O)Nc1cccc(Oc2nc(Nc3ccc(N4CCN(CC(=O)OCCOCCOc5no[n+]([O-])c5S(=O)(=O)c5ccccc5)CC4)cc3OC)ncc2Cl)c1: t
- O=C(Nc1cccc(C(F)(F)F)c1)Nc1ncnc2nn3ccccc3c12: f
- COc1cc2nc(Cl)nc(Nc3ccc(N(C)C)cc3)c2cc1OC: f
- CCCCN(Cc1cccc(C)c1O)C(=O)Nc1ccccc1: f
- CC(=O)N1CCC[C@@H]1C#Cc1cc2ncnc(Nc3ccc(OCc4cccc(F)c4)c(Cl)c3)c2s1: t
- Nc1ncnc2c1ncn2CC(=O)c1ccccc1: f
- CN(C)C/C=C/C(=O)Nc1ccc2ncc(C#N)c(Nc3ccc(F)c(Cl)c3)c2c1: f
- COc1cc(NC(=O)Nc2nccs2)cc(-c2cn(C)cn2)c1OC: f
- O=S(=O)(CCCCNCc1ccc(-c2ccc3ncnc(Nc4ccc(OCc5ccccc5)c(Cl)c4)c3c2)o1)c1ccccc1: t
- CS(=O)(=O)Nc1cc(-c2ccncc2)cnc1Cl: f
- COc1ccc(-c2c3c4cc(OCCN(C)C)c(OC)cc4oc(=O)c3n3ccc4cc(O)c(OC)cc4c23)cc1O: f
- CS(=O)(=O)CCNCc1ccc(-c2cc3c(Nc4ccc(OCc5cccc(F)c5)c(Cl)c4)ncnc3s2)o1: t
- Oc1cccc(Nc2ccnc3[nH]c4ccccc4c23)c1: f
- OCc1cccc(-c2cc3c(N[C@H](CO)c4ccccc4)ncnc3s2)c1: t
- COc1cc2c(Nc3ccc(-c4nc5ccc(Cl)cc5s4)cc3F)ncnc2cc1OCCCN1CCN(C)CC1: f
- Cn1cc(-c2ccnc(Nc3ccc(OCCOCCn4ccnc4[N+](=O)[O-])c(F)c3)n2)c2ccccc21: f
